Below, each entry is listed alongside its reported EC50.
tested target: WT JR-FL gp120 (HIV-1 (isolate JR-FL))
method description: ELISA on coated gp120; EC50 by nonlinear regression
Write it as a number; the unit µg/mL goes unstated.

Look at this binder and give its reported EC50. PGT-123 (antibody, V domains shown) VH: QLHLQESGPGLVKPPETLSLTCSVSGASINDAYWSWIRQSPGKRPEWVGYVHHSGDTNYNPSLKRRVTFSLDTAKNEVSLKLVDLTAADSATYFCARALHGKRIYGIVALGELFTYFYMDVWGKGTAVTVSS VL: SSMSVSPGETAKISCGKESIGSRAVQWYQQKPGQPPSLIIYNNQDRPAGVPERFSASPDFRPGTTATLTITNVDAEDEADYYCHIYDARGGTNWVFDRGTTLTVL 0.2

Now this one: PGT-125 (antibody, V domains shown) VH: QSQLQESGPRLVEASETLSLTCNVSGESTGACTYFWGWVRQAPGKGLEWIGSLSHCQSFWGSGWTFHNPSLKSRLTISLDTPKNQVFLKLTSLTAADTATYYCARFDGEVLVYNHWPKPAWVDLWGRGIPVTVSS VL: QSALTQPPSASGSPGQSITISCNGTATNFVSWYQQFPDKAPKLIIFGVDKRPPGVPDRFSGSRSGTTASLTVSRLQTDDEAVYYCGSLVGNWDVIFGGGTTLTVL 0.2

The record that follows has no EC50 shown yet.
Find the recorded EC50 belonging to PGT-130 (antibody, V domains shown) VH: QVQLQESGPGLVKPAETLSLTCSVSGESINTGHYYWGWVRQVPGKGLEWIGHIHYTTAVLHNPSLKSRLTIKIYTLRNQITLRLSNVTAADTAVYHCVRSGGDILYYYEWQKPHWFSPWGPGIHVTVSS VL: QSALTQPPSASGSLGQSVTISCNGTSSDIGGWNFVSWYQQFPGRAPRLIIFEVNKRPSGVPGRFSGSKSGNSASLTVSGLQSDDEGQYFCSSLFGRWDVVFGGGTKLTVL and report it. 0.2
